test system: Chordin-like protein 2 (CHRDL2); experiment: compounds binding chordin-like 2 – biochemical, small-molecule microarray, 635 nm fluorescence, primary screen (AID 1126); conditions: fluorescence 635 nm, higher = more signal;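 note: printed compound slides probed with Chrdl2 protein at 4 µg/mL for 1 h at 4 C; score merges 667 nm emission intensity with signal to noise over three replicate slides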
Classes based on composite z-score: lower level = under -0.7, middle level = from -0.7 up to 0.9, upper level = 0.9 and over

[in] Band for the recorded composite z-score of `O=C1O[C@H](c2ccccc2)[C@H](c2ccccc2)N2[C@H]1[C@@H](C(=O)NC[C@H](O)c1ccccc1)[C@]1(C(=O)Nc3ccc(C#CC4=CCCCC4)cc31)[C@H]2c1ccc(O)cc1` ?
[out] middle level

[in] The entry to classify is `COc1ccc([Si](C)(C)[C@@H]2[C@@H](CCO)O[C@]3(C(=O)N(Cc4cccc(N(C=O)c5ccccc5)c4)c4ccccc43)[C@H]2C)cc1` ; which class holds it?
[out] middle level

[in] // return the class label for `CC(C)NC(=O)[C@@H]1c2ccccc2C(=O)N(C2CCCCC2)[C@H]1c1ccc(CO)cc1`
[out] middle level

[in] // return the class label for `CC(C)[Si]1(C(C)C)O[C@@H](c2ccccc2)c2cc(-c3ccc(-c4ccc(Cl)c(Cl)c4)o3)nc(CCc3ccccc3)c21`
[out] lower level

[in] Given COc1cc2c(cc1O)C(c1ccc(CN3CCCC3)cc1)N(Cc1sc3ccccc3c1Cl)CC2 (stereo not given) , name the class its composite z-score places it in.
[out] upper level

[in] Hi, small favor: classify O=C1OCCC=C[C@H]2OC34C=CCN(c5ccc6ccccc6c5)C(=O)[C@H]3N(CCCCCCO)C(=O)[C@@H]4C12 (stereo not given in full) by its composite z-score when you get a moment.
[out] lower level

[in] Kindly state the category for this compound: CC(c1ccccc1)C(O)C1C=CC2C(=O)N(Cc3ccccc3)C(=O)C2N1n1cnnc1 (stereo not given)
[out] middle level

[in] Record `COC(=O)[C@@]1(Cc2ccc(F)cc2)[C@H]2c3cc(C(=O)N(C)C)n(CCCNc4ccc(C(F)(F)F)cc4Cl)c3C[C@H]2CN1C(=O)c1ccccc1` — which class?
[out] lower level

[in] Entry `COc1ccc([Si](C)(C)[C@H]2[C@H](CC(=O)N3Cc4ccccc4C[C@H]3CO)O[C@@]3(C(=O)N(Cc4cccc(I)c4)c4ccccc43)[C@@H]2C)cc1` belongs to which category?
[out] upper level

[in] Class (by measured composite z-score) for `C/C=C/[C@H](CCn1cc([C@H](O)c2ccccc2)nn1)[Si](C)(C)c1ccc(OC)cc1`
[out] middle level

[in] For `O=C1O[C@@H](c2ccccc2)[C@@H](c2ccccc2)N2[C@@H](c3ccc(O)cc3)[C@]3(C(=O)Nc4ccc(C#CCCO)cc43)[C@@H](C(=O)N3CCCCCCC3)[C@H]12` , which composite z-score bin applies?
[out] upper level

[in] Category of `COCCOC(=O)N1C(=O)[C@@]2(c3ccccc31)[C@H](c1ccc(O)cc1)N1[C@H](c3ccccc3)[C@H](c3ccccc3)OC(=O)[C@H]1[C@@H]2C(N)=O` , please.
[out] lower level

[in] Category lookup for the compound `C[n+]1ccc2ccc(O)cc2c1`
[out] upper level
